# experimentalSystem: Tyrosine-protein phosphatase non-receptor type 5 (Homo sapiens) (UniProt P54829)
# Sequence (P54829 whole entry, looked up): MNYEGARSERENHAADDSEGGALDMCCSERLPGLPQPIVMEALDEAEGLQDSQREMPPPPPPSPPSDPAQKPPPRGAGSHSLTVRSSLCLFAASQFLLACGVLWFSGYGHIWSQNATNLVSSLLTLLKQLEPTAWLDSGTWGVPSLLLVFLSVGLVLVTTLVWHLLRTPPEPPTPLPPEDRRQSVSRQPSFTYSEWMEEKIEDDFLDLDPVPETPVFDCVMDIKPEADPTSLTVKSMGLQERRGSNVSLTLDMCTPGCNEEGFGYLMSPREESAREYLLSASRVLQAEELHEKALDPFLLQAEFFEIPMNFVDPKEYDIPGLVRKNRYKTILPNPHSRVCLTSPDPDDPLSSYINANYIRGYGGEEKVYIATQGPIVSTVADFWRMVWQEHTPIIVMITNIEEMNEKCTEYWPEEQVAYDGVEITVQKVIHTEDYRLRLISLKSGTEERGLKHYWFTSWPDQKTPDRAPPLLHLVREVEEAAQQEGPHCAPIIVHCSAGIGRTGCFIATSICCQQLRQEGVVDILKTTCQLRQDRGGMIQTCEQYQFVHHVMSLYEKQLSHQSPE
# runDescription: STEP phosphatase inhibitors, primary screen, biochemical, fluorescence intensity, uHTS (AID 588621);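 note: 0% = DMSO with enzyme and substrate and 100% = substrate only without enzyme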
# runConditions: recombinant STEP, OMFP fluorogenic substrate, at 20 µM, active compounds read high
About 890 (0.25%) of roughly 360,000 compounds were called active. The sample holds actives, similar compounds and a random draw of the others, so the mix is not that of the screen.

compound | scaleUnit | inhibition
CNc1[nH]ncc1[N+](=O)[O-] | % | -1.1
OCc1n[nH]c(CO)n1 | % | -3.3
Cc1ccc(NC2=C(Cl)C(=O)OC2OC(=O)c2ccccc2C)cc1 (stereo unspecified) | % | -1.2
O=C(OCC(=O)N1CCCC1)c1ccc(Cl)nc1 | % | -2.6
CCCCNC(=O)c1c[nH]c2ccc(S(=O)(=O)Nc3ccc(OCC)cc3)cc2c1=O | % | 4.4
CCC1(C)N(O)C(C)(C)C(c2ccc(OC)cc2)=[N+]1[O-] (stereo unspecified) | % | -1.7

* * *

# experimentalSystem: Tyrosine-protein phosphatase non-receptor type 5 (Homo sapiens) (UniProt P54829)
# runDescription: STEP phosphatase inhibitors, primary screen, biochemical, fluorescence intensity, uHTS (AID 588621);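 note: 0% = DMSO with enzyme and substrate and 100% = substrate only without enzyme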
# runConditions: recombinant STEP, OMFP fluorogenic substrate, at 20 µM
Out of some 360,000 compounds screened, about 890 (0.25%) were called active.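 Rule for the calls: active = inhibition at 20 µM, scaled per plate between control wells, above about 37% (limit read from the data); inactive = the rest.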 The full list was thinned out, with actives kept by preference.
Classes used: active, inactive

compound | category
O=C(NCc1ccc(F)cc1)c1cc(C2CCCCN2C(=O)c2ccccn2)on1 (configuration not stated) | inactive
COc1ccc(NC(=O)c2ccco2)cc1NC(=O)c1ccc(C#N)cc1F | inactive
Cc1csc2nc(COC(=O)c3cccc(N(C)C)c3)cc(=O)n12 | inactive
C/C=C/C(=O)Nc1ccc(N2CCN(c3ccc(C(F)(F)F)cn3)CC2)nc1 | active
Cc1ccc(F)cc1NC(=O)N1CCCN(c2ccc(C(F)(F)F)cn2)CC1 | inactive
CCOC(=O)c1c(-n2cnnn2)sc(C)c1C | inactive
Nc1cc(=O)c2[nH]cnc2[nH]1 | inactive
CSc1ccc(C#N)cc1NC(=O)c1ccc(Cl)cc1 | inactive
S=C(Nc1ccc2c(c1)OCO2)N1CCCC1 | inactive
Cn1c(Cc2csc(N)n2)nnc1SC/C=C/c1ccccc1 | inactive
CCCCN(C)Cc1c(C)[nH]c2ccc(Cl)cc2c1=O | inactive
CCN1CCc2nc(NC(=O)c3cc(F)c(F)cc3Cl)sc2C1 | inactive

* * *

# experimentalSystem: Tyrosine-protein phosphatase non-receptor type 5 (Homo sapiens) (UniProt P54829)
# runDescription: STEP phosphatase inhibitors, primary screen, biochemical, fluorescence intensity, uHTS (AID 588621);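 note: 0% = DMSO with enzyme and substrate and 100% = substrate only without enzyme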
# runConditions: recombinant STEP, OMFP fluorogenic substrate, at 20 µM
In all, about 360,000 compounds went through this assay and about 890 (0.25%) were called active.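 Rule for the calls: active = inhibition at 20 µM, scaled per plate between control wells, above about 37% (limit read from the data); inactive = the rest.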 For the sample, actives were picked, then their nearest neighbours and some compounds at random.
Classes used: active, inactive

molecule | category
CCc1ccccc1NC(=O)CN1CCN(C(=O)c2cc(C3CC3)nn2-c2ccccc2)CC1 | inactive
Cc1c(C#N)c2ncn(CC#N)c(=O)c2n1-c1ccccc1 | inactive
COc1ccc2[nH]c(=O)c(-c3noc(-c4ccc(F)cc4)n3)cc2c1 | active
CC1C(=O)NC(=O)C1c1ccccc1 (stereo unspecified) | inactive
Cc1ccccc1CC1(CO)CCCN(C(=O)c2cc(-c3ccccc3)no2)C1 (stereo unspecified) | active
COC(=O)Cn1cnc2scc(-c3ccc(C)c(C)c3)c2c1=O | inactive
CC(C)(C)NC(=O)CSC(=Nc1ccccc1F)NC#N | inactive
O=S1(=O)CSCS(=O)(=O)C1 | inactive
C=CC1=C(C(=O)O)N2C(=O)[C@@H](NC(=O)/C(=N\OCC(=O)O)c3csc(N)n3)[C@H]2SC1 | active
O=C(COc1cccc(F)c1)Oc1ccc(C(=O)c2ccccc2)cc1 | active
CCCc1nc(-c2cc3cc(C)ccc3[nH]c2=O)no1 | inactive

These entries and their values trace back to PubChem BioAssay AID588621.
